Data provenance is patent US20240158446A1.

Target: GDP-bound KRAS wild-type protein (Homo sapiens, UniProt P01116)
Sequence (P01116 whole entry): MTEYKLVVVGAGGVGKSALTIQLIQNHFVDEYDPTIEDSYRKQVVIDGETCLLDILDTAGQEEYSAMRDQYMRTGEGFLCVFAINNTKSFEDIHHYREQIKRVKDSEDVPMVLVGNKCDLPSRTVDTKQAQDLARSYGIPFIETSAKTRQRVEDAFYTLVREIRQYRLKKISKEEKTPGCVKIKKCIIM
Assay: Binding to KRAS by surface plasmon resonance (SPR), Single Cycle Kinetics
Details: SPR, Single Cycle Kinetics, GDP-bound KRAS wild-type protein; read-out: KRAS KD
Where a SMILES comes first, the peptide text is derived from it. Bridges are numbered along the chain shown (N, C = ends). [ ]: non-standard residue; d: D form. hPhe(3-Cl-4-CF3) = N[C@@H](CCc1ccc(C(F)(F)F)c(Cl)c1)C(=O)O; NPrPhe(4-CF3) = CCCN[C@@H](Cc1ccc(C(F)(F)F)cc1)C(=O)O; NMeNva(3-Et) = CCC(CC)[C@H](NC)C(=O)O; NMeD = CN[C@@H](CC(=O)O)C(=O)O; NMeL = CN[C@@H](CC(C)C)C(=O)O; Ac4c = NC1(C(=O)O)CCC1; Sar = CNCC(=O)O
Items are presented alongside their recorded pKd.
// pKd: -log10(molar conc.)

Some compounds with recorded pKd:
[[record]]
compound = "CCO[C@@H]1C[C@H]2C(=O)NC3(CCC3)C(=O)N(C)[C@@H](C3CCCC3)C(=O)N(CCC3CCCC3)[C@H](C(=O)N(C)C)CC(=O)N(C)[C@@H](CC(C)C)C(=O)N[C@@H]([C@@H](C)CC)C(=O)N(C)CC(=O)N(C)[C@H]3CCCCCN(C3=O)[C@@H](Cc3ccc(F)cc3)C(=O)N(C)CC(=O)N[C@@H](CCc3ccc(C(F)(F)F)c(Cl)c3)C(=O)N2C1 [PP0976]"
measured_quantity = "pKd"
reported_value = 8.32

[[record]]
compound = "CC[C@H](C)[C@@H]1NC(=O)[C@H](CC(C)C)N(C)C(=O)C[C@@H](C(=O)N2CCOCC2)N(C)C(=O)[C@H](C2CCCC2)N(C)C(=O)C2(CCC2)NC(=O)[C@@H]2[C@H](O)CCN2C(=O)[C@H](CCc2cc(F)c(C(F)(F)F)c(F)c2)NC(=O)CN(C)C(=O)[C@H](Cc2ccc(C(F)(F)F)cc2)N2CCCC[C@@H](C2=O)N(C)C(=O)CN(C)C1=O [PP0870]"
measured_quantity = "pKd"
reported_value = 10.24


Consider CCO[C@@H]1C[C@H]2C(=O)NC3(CCC3)C(=O)N(C)[C@@H](C3CCCC3)C(=O)N(C)[C@H](C(=O)N(C)C)CC(=O)N(C)[C@@H](CC)C(=O)N[C@@H]([C@@H](C)CC)C(=O)N(C)CC(=O)N(C)[C@H]3CCCCN(C3=O)[C@@H](Cc3ccc(C(F)(F)F)cc3)C(=O)N(C)CC(=O)N[C@@H](CCc3cc(Cl)c(C(F)(F)F)c(Cl)c3)C(=O)N2C1 [PP0985] . Its measured pKd is 10.66

Input CCCN1C(=O)CN(C)C(=O)CN(C)C(=O)[C@H]([C@@H](C)CC)NC(=O)[C@H](CC(C)C)N(C)C(=O)C[C@@H](C(=O)N(C)C)N(C)C(=O)[C@H](C(CC)CC)N(C)C(=O)C2(CCC2)NC(=O)[C@@H]2CCCN2C(=O)[C@H](CCc2ccc(C(F)(F)F)c(Cl)c2)NC(=O)CN(C)C(=O)[C@@H]1Cc1ccc(C(F)(F)F)cc1 [PP1960] ([NMeL]I[Sar][Sar][NPrPhe(4-CF3)][Sar][hPhe(3-Cl-4-CF3)]P[Ac4c][NMeNva(3-Et)][NMeD]-NMe2; lactam N-11) . Output pKd: 9.77

Noted for CCO[C@@H]1C[C@H]2C(=O)NC3(CCC3)C(=O)N(C)[C@@H](C3CCCC3)C(=O)N(C)[C@H](C(=O)N(C)C)CC(=O)N(C)[C@@H](Cc3ccccc3C#N)C(=O)N[C@@H]([C@@H](C)CC)C(=O)N(C)CC(=O)N(C)[C@H]3CCCCCN(C3=O)[C@@H](Cc3ccc(C(F)(F)F)cc3)C(=O)N(C)CC(=O)N[C@@H](CCc3cc(F)c(C(F)(F)F)c(F)c3)C(=O)N2C1 [PP1171] : its pKd reads 9.16
